log10 koff for assorted binders
- study_target: Recombinant human his-tagged IGF R extracellular domain protein (human) (UniProt P08069)
- experimental_protocol: SPR, Ab captured via anti-huIgG Fc, pH 7.4
metric_name: log10 koff (log10 of the value in s⁻¹)

binder: VRDN-02010 (antibody, V domains shown) VH: QVQLQESGPGLVKPSETLSLTCTVSGYSITGGYLHNWIRQPPGKGLEWIGYISYDGTNNYKPSLKDRVTISRDTSKNQFSLKLSSVTAADTAVYYCARYGRVFFDYWGQGTLVTVSS VL: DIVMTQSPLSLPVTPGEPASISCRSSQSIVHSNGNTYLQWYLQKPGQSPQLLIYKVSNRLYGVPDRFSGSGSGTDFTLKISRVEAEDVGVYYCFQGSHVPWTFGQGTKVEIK
measured_result: -2.51

binder: VRDN-02073 (antibody, V domains shown) VH: QVQLQESGPGLVKPSETLSLTCTVSGYSITGGYLWNWIRQPPGKGLEWIGYIHYDGTNNYKPSLKDRVTISRDTSKNQFSLKLSSVTAADTAVYYCARHGRVFFDYWGQGTLVTVSS VL: DIVMTQSPLSLPVTPGEPASISCRSHQSIVHSNGNTYLQWYLQKPGQSPQLLIYKVSNRLYGVPDRFSGSGSGTDFTLKISRVEAEDVGVYYCFQGSHVPHTFGQGTKVEIK
measured_result: -4.50

binder: VRDN-02025 (antibody, V domains shown) VH: QVQLQESGPGLVKPSETLSLTCTVSGYSITGGYLWNWIRQPPGKGLEWIGYISYDGTNNYKPSLKDRVTISRDTSKNQFSLKLSSVTAADTAVYYCARYGRVHFDYWGQGTLVTVSS VL: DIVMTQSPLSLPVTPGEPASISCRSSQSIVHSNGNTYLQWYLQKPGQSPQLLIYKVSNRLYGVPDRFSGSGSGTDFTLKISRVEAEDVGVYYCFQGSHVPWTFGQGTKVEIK
measured_result: -3.85

binder: VRDN-02058 (antibody, V domains shown) VH: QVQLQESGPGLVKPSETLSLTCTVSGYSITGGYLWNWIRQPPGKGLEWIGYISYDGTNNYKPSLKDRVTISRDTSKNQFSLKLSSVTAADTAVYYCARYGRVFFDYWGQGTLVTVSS VL: DIVMTQSPLSLPVTPGEPASISCRSSQSIVHSNGNTYLQWYLQKPGQSPQLLIYKVSNRLYGVPDRFSGSGSGTDFTLKISRVEAEDVGVYYCFQGSHVPWHFGQGTKVEIK
measured_result: -4.07

binder: VRDN-02016 (antibody, V domains shown) VH: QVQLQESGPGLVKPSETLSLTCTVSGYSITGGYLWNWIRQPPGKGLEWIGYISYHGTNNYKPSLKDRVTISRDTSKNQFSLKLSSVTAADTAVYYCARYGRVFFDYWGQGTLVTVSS VL: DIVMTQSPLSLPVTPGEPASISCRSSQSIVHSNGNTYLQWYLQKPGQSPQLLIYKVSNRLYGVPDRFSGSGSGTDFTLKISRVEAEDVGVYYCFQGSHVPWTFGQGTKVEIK
measured_result: -4.47

binder: VRDN-02037 (antibody, V domains shown) VH: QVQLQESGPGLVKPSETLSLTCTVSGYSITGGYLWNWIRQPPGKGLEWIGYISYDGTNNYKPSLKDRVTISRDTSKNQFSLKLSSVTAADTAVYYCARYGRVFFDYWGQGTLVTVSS VL: DIVMTQSPLSLPVTPGEPASISCRSSQSIVHSHGNTYLQWYLQKPGQSPQLLIYKVSNRLYGVPDRFSGSGSGTDFTLKISRVEAEDVGVYYCFQGSHVPWTFGQGTKVEIK
measured_result: -4.19

binder: VRDN-02068 (antibody, V domains shown) VH: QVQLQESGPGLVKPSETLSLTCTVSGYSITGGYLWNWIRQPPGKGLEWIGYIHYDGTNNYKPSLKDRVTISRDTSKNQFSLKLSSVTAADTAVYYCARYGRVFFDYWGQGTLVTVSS VL: DIVMTQSPLSLPVTPGEPASISCRSSQSIVHSNGNTYLQWYLQKPGQSPQLLIYKVSNRLYGVPDRFSGSGSGTDFTLKISRVEAEDVGVYYCFQGSHVPHTFGQGTKVEIK
measured_result: -4.54

binder: VRDN-02055 (antibody, V domains shown) VH: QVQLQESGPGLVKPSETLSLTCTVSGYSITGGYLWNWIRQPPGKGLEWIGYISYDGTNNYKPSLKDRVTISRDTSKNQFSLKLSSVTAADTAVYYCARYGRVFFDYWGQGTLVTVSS VL: DIVMTQSPLSLPVTPGEPASISCRSSQSIVHSNGNTYLQWYLQKPGQSPQLLIYKVSNRLYGVPDRFSGSGSGTDFTLKISRVEAEDVGVYYCFQGSHHPWTFGQGTKVEIK
measured_result: -4.31

binder: VRDN-02036 (antibody, V domains shown) VH: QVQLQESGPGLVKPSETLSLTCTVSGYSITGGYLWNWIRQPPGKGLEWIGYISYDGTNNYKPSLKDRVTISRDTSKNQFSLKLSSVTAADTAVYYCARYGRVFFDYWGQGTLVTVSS VL: DIVMTQSPLSLPVTPGEPASISCRSSQSIVHHNGNTYLQWYLQKPGQSPQLLIYKVSNRLYGVPDRFSGSGSGTDFTLKISRVEAEDVGVYYCFQGSHVPWTFGQGTKVEIK
measured_result: -4.35

binder: VRDN-02052 (antibody, V domains shown) VH: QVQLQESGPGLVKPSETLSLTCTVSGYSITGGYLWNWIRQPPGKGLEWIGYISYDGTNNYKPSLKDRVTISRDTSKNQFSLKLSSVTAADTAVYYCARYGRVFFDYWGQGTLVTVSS VL: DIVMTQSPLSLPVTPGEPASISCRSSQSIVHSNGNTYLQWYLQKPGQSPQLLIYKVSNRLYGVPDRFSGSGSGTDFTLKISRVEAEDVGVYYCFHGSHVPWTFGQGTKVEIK
measured_result: -4.24

Attribution: patent US20240360227A1
